Source listed as a melting point compilation (Tetko et al.).

readout_name: melting point (°C)

Some entries whose results are on file:
Nc1cccc(N)c1N ... 103
N#CCc1nn(-c2ccccc2)c(N)c1C#N ... 164
C1COC1 ... -97
CCCCCC#CCO ... -18
NS(=O)(=O)c1cc(-c2nnn[nH]2)c(NCc2cccs2)cc1Cl ... 220

1 = O=C1COc2ccc(S(=O)(=O)Cl)cc2N1
2 = CSCC(=O)O
3 = C=Cc1ccc(C(=O)OC)cc1
4 = CCCCN(CCCC)CCCN
5 = O=C1CCCCCO1
Exercise: List items by melting point in falling order. # list labels per requested ordering
Solution: 1, 3, 2, 5, 4

1 = CCc1cccc2c3c([nH]c12)C(CC)(CC(=O)O)OCC3 (stereo not drawn)
2 = Cc1nc2ccccc2o1
Exercise: Please tell me which of the two, 1 or 2 , has the higher reported melting point value. Please reply using the label of the selected record.
Solution: 1
(1: 146 °C, 2: 9.5 °C)
